- Measured On: HiBit tagged KAT6A (Homo sapiens, UniProt Q92794)
- Construct: host or cells: HeLa
- Sequence (Q92794 whole entry): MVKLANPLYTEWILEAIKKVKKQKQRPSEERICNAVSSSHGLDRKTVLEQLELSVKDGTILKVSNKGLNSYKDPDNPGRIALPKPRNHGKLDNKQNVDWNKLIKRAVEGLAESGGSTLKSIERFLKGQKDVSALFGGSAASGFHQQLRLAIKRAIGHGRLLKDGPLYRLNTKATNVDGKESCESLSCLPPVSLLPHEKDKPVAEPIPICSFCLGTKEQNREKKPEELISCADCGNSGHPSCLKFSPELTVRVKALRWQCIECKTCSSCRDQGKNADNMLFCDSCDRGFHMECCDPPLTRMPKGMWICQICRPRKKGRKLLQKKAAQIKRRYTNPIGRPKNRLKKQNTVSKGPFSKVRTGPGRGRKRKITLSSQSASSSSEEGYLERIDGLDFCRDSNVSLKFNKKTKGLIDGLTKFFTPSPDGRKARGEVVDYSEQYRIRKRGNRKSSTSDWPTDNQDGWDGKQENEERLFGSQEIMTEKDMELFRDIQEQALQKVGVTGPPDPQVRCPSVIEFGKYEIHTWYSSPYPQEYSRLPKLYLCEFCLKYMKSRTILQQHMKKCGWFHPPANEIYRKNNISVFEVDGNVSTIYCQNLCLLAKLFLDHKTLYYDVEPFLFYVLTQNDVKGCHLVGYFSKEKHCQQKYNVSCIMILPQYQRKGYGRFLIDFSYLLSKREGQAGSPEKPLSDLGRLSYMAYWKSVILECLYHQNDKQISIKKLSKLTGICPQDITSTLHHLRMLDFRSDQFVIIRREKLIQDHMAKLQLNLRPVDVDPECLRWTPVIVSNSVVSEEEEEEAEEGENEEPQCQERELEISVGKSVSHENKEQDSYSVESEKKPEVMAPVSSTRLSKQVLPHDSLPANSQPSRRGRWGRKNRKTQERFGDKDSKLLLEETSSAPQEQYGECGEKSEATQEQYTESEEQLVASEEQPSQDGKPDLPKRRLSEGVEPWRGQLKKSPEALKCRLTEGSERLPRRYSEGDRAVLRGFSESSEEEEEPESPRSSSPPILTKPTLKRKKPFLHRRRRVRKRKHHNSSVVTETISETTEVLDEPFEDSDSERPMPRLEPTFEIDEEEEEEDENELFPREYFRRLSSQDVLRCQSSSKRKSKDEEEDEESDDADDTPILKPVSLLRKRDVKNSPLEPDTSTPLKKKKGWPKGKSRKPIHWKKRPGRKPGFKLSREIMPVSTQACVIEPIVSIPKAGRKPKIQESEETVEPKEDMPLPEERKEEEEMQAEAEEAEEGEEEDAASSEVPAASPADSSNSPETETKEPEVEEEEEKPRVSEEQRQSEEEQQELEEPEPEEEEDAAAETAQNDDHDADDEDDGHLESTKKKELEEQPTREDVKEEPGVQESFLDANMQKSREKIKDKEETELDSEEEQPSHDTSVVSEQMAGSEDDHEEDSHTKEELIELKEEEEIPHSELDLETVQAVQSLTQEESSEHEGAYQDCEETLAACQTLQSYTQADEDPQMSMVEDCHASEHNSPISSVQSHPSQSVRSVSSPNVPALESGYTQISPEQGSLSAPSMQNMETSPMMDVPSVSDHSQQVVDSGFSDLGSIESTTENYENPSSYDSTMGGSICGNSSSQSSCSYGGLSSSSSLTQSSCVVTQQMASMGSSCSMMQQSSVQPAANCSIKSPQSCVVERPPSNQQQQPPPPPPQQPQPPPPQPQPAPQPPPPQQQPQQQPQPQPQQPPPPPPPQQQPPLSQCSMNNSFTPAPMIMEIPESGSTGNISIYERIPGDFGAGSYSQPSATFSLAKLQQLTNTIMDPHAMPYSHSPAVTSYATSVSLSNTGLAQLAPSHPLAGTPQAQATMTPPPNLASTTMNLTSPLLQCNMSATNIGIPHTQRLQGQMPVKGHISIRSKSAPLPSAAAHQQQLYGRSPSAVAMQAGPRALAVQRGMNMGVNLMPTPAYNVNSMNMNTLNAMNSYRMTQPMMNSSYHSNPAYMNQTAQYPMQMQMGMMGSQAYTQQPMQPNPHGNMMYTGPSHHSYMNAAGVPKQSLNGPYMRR
- Procedure Details: HiBit KAT6A Degradation Assessment
- Format: cell-based
- Test Context: HeLa cells with HiBit tagged KAT6A, 18 h of treatment, 9-point serial dilution
Measured Metric: DC50

Example results:
Compound	DC50
COc1cc(Cn2cccn2)cc2onc(NS(=O)(=O)c3cccc(N4CCN(CC5CC6(CCN(c7ccc8c(c7)C(=O)N(C7CCC(=O)NC7=O)C8=O)CC6)C5)CC4)c3)c12 (centres unmarked)	10 to 100 nM
COc1cc(Cn2cccn2)cc2onc(NS(=O)(=O)c3cccc(N4CCN(CC5CCN(c6ccc7c(c6)C(=O)N(C6CCC(=O)NC6=O)C7=O)C5)CC4)c3)c12 (centres unmarked)	100 to 1000 nM
COc1cc(Cn2cccn2)cc2onc(NS(=O)(=O)c3cccc(N4CCN(CC5CN(c6ccc7c(c6)C(=O)N(C6CCC(=O)NC6=O)C7=O)C5)CC4)c3)c12 (centres unmarked)	10 to 100 nM
COc1cc(Cn2cccn2)cc2onc(NS(=O)(=O)c3cccc(N4CC5(CCN(C[C@@H]6CCN(c7ccc8c(c7)C(=O)N(C7CCC(=O)NC7=O)C8=O)C6)CC5)C4)c3)c12 (some centres unmarked)	< 10 nM

API: the following record is the query input.
Request: Item COc1cc(Cn2cccn2)cc2onc(NS(=O)(=O)c3cccc(N4CCN(C5CC6(CCN(c7ccc8c(c7)C(=O)N(C7CCC(=O)NC7=O)C8=O)C6)C5)CC4)c3)c12 (centres unmarked) has what recorded DC50?
Response: 10 to 100 nM

====

What inhibition at 0.1 µM was measured for each of the following?
- Measured On: KAT6A (Homo sapiens)
- Construct: These studies were conducted in the HCC1954 cell line which harbors a KAT6A copy number amplification; endogenous in cells; host or cells: HCC1954
- Sequence (Q92794 whole entry): as above
- Procedure Details: Western Blot KAT6A Degradation Assessment
- Format: cell-based
- Test Context: 0.1 μM compound, 24 hours of treatment, HCC1954 cell line, KAT6A normalized to GAPDH and DMSO

Compound	Value
COc1cc(Cn2cccn2)cc2onc(NS(=O)(=O)c3cccc(N4CCN(C5CC6(CCN(c7ccc8c(c7)C(=O)N(C7CCC(=O)NC7=O)C8=O)C6)C5)CC4)c3)c12 (centres unmarked)	> 75%
COc1cc(Cn2cccn2)cc2onc(NS(=O)(=O)c3cccc(N4CCN(CC5CCN(c6ccc7c(c6)CN(C6CCC(=O)NC6=O)C7=O)C5)CC4)c3)c12 (centres unmarked)	50 to 75%

Provide reported inhibition at 0.1 µM for each item, in the same order as listed.
1. COc1cc(Cn2cccn2)cc2onc(NS(=O)(=O)c3cccc(N4CC5(CCN(CC6CCN(c7ccc8c(c7)C(=O)N(C7CCC(=O)NC7=O)C8=O)C6)CC5)C4)c3)c12 (centres unmarked)
2. COc1cc(Cn2cccn2)cc2onc(NS(=O)(=O)c3cccc(N4CCN(C5CC6(CCN(c7ccc8c(c7)C(=O)N(C7CCC(=O)NC7=O)C8=O)CC6)C5)CC4)c3)c12 (centres unmarked)
3. COc1cc(Cn2cccn2)cc2onc(NS(=O)(=O)c3cccc(N4CCN(CCCC5CCN(c6ccc7c(c6)C(=O)N(C6CCC(=O)NC6=O)C7=O)CC5)CC4)c3)c12 (centres unmarked)

Response:
1: > 75%; 2: 50 to 75%; 3: 50 to 75%

Hello, the source for this data is patent US20230416240A1, in case you need it.
